Target: HCV NS3/4A protease genotype 1b (Hepatitis C virus genotype 1b, UniProt P26663)
Assay: HCV NS3/4A protease time-resolved fluorescence (TRF) assay, Ki against genotype 1b
Assay type: biochemical
Conditions: IC50 [gt-1b] (nM), NS3/4A genotype 1b, enzyme 0.2 nM
From the text: Measuring NS3/4A Inhibitory Activity (Ki) Against Genotype 1b, Against A156T Mutants and Against Genotype 3a One assay for measuring inhibitory activity is HCV NS3 protease time-resolved fluorescence (TRF) assay as described below and in Mao et al., Anal. Biochem. 373:1-8, 2008 and International Patent Application Publication WO 2006/102087. […]
assay.readout: IC50 (nM)
Report the value in nM with no unit label.

# example entries with known answers
[[record]]
molecule = "COc1ccc2c3c(c(C4CC4)nc2c1)O[C@]1(CC3)C[C@H]2C(=O)N[C@]3(C(=O)NS(=O)(=O)C4(C)CC4)C[C@H]3/C=C\\CCCCC[C@H](NC(=O)OC(C)C)C(=O)N2C1"
experimental_target = "HCV NS3/4A protease genotype 1b (Hepatitis C virus genotype 1b, UniProt P26663)"
measured_number = 0.025

[[record]]
molecule = "CC(C)(C)OC(=O)N[C@H]1CCCCC/C=C\\C2CC2(C(=O)NS(=O)(=O)C2(C)CC2)NC(=O)C2C[C@]3(CCc4c(c(C5CC5)nc5ccc(F)cc45)O3)CN2C1=O (stereo partly shown)"
experimental_target = "HCV NS3/4A protease genotype 1b (Hepatitis C virus genotype 1b, UniProt P26663)"
measured_number = 0.016

[[record]]
molecule = "Cc1nc2ccc(OC(F)(F)F)cc2c2c1O[C@]1(CC2)C[C@H]2C(=O)N[C@]3(C(=O)NS(=O)(=O)C4(C)CC4)C[C@H]3/C=C\\CCCCC[C@H](NC(=O)OCC(C)C)C(=O)N2C1"
experimental_target = "HCV NS3/4A protease genotype 1b (Hepatitis C virus genotype 1b, UniProt P26663)"
measured_number = 0.016

[[record]]
molecule = "COc1ccc2nc(C3CCC3)c3c(c2c1)CC[C@]1(C[C@H]2C(=O)N[C@]4(C(=O)NS(=O)(=O)C5(C)CC5)C[C@H]4/C=C\\CCCCC[C@H](NC(=O)OC4CCCC4)C(=O)N2C1)O3"
experimental_target = "HCV NS3/4A protease genotype 1b (Hepatitis C virus genotype 1b, UniProt P26663)"
measured_number = 0.013

[[record]]
molecule = "COCC1(S(=O)(=O)NC(=O)[C@@]23C[C@H]2/C=C\\CCCCC[C@H](NC(=O)OC(C)(C)C)C(=O)N2C[C@@]4(CCc5c(c(C(F)(F)F)nc6ccc(OC)cc56)O4)C[C@H]2C(=O)N3)CC1"
experimental_target = "HCV NS3/4A protease genotype 1b (Hepatitis C virus genotype 1b, UniProt P26663)"
measured_number = 0.014

[[record]]
molecule = "Cc1nc2ccc(OC(F)(F)F)cc2c2c1O[C@]1(CC2)C[C@H]2C(=O)N[C@]3(C(=O)NS(=O)(=O)C4(C)CC4)C[C@H]3/C=C\\CCCCC[C@H](NC(=O)OCC3COC3)C(=O)N2C1"
experimental_target = "HCV NS3/4A protease genotype 1b (Hepatitis C virus genotype 1b, UniProt P26663)"
measured_number = 0.011


// map COc1ccc2nc(C(F)(F)F)c3c(c2n1)C(F)C[C@]1(C[C@H]2C(=O)N[C@]4(C(=O)NS(=O)(=O)C5(C)CC5)C[C@H]4/C=C\CCCCC[C@H](NC(=O)OC(C)(C)C)C(=O)N2C1)O3 (stereo partly shown) to recorded IC50 (system: HCV NS3/4A protease genotype 1b (Hepatitis C virus genotype 1b, UniProt P26663))
0.042
